assay: Apparent permeability of the compound from apical to basal side of human Caco2 cells at 1 uM after 60 mins by LCMS analysis; format: ADME, cell-based; conditions: Caco-2
result_type: Papp A→B at 1 h, 1 µM (×10⁻⁶ cm/s)
Enter your answer as a number in ×10⁻⁶ cm/s; do not include the unit.

## Input Using the record for `Cc1ccc(-c2cccc([S@]3(=O)=NC(=O)[C@H](C)N3)c2)cc1` , state its measured Papp A→B at 1 h, 1 µM.
## Output 66

Lab note: next compound to report on.
## Input Identify measured Papp A→B at 1 h, 1 µM corresponding to `C[C@@H]1N[S@](=O)(c2cccc(-c3cccc(C#N)c3)c2)=NC1=O`
## Output 2.3
